System: THRa:RXRa (NR concentration 90 nM, RXRa partner concentration 90 nM)
protocol.details: PBM binding z-score (relative to random genomic background probes); higher = stronger binding; sequences stand for … in GC…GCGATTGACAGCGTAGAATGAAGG
measured.attribute: PBM binding z-score

INSERT INTO assay_data (sequence_record, endpoint_result) VALUES
  ('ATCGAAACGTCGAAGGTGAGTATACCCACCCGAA', 0.0237),
  ('CCTACTAGGTCATGGTCAGCTAATCTACAGTATG', 2.87),
  ('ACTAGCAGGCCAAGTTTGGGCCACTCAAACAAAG', 0.356),
  ('TCTTGTAGATCAGCAGGTTAATAAAGCTGGCCAA', 0.0327),
  ('GGAACGAGGGCAAGATGATAGCAGAGTTTGATGG', 0.971),
  ('GCTAGCAGGCCATTTTGGTCACTCAATGACGGGC', -0.234),
  ('CATACAGGGTCAGCGAGGCCAGAGTAGGGACGGC', 3.58),
  ('ATCTCTAGGTAAGGATAGTTCAGTGAATGCAAAT', 1.21),
  ('AGAATGAGGTTATGCGTAGATCAGGGAAGAAAGT', 2.24),
  ('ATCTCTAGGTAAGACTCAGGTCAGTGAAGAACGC', 2.67),
  ('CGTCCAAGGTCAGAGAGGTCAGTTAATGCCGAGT', 4.39),
  ('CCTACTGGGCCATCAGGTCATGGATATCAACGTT', 3.47),
  ('CGAACTAGGTCATCCAGGACAGTGTATACATTGA', 3.62),
  ('CTCGAAAGATCGGTTGAGGTGAGTATACGGATAA', 3.31),
  ('TTACCAAGGTGAGCTGACGTCGTTGATCCAACTC', 0.839),
  ('TAGCCTAGGTCAGTTCGGGCCAGTATACGCTATA', 4.04),
  ('CCTAGCAGGCCTATCTGGGTCACTCAAGGCTTGA', 2.3),
  ('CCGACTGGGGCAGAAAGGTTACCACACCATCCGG', 1.01),
  ('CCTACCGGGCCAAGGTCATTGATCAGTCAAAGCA', 3.58),
  ('GCTTACGGGTCAAAGCTTATAGCATGAATAGAAT', 2.12),
  ('CCCACTGGGCCAAAAAGGTCATTGATGCCGATAA', 3.02),
  ('GGAAGGAGGGCAAAGTTGATAGCATCTGTCGACG', 1.04),
  ('AGAATGAGGTTAAGATCAAGGAAACAGAATACAT', 2.39),
  ('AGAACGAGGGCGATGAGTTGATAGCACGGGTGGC', -0.0851),
  ('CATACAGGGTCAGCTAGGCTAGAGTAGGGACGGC', 2.84),
  ('GCTAGCAGGCCATTTGGTTCACTCAATGACGGGC', -0.195);

====

Tested on: PPARg:RXRa 270nM:90nM, anti-RXR (NR concentration 270 nM, RXRa partner concentration 90 nM)
protocol.details: PBM binding z-score (relative to random genomic background probes); higher = stronger binding; sequences stand for … in GC…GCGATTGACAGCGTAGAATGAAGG
measured.attribute: PBM binding z-score

INSERT INTO assay_data (sequence_record, endpoint_result) VALUES
  ('CCTTACGGGTCACTGACAGGTTATAGTATTTGGA', 4.34),
  ('CGTCAAAGTTCAAGGTATCGTAACAGAAAGCAGC', 4.59),
  ('ACTATTAGTTGACTTAGGGCAACCCATACGACGC', 0.234),
  ('AATATTAGTTGAGACGAGGGCAACCGATAGGTTG', 0.51),
  ('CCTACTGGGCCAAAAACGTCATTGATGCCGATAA', 1.02),
  ('CGGCCAAGGTCAGCAGGTCAGTGAAAGCGACGTG', 4.32),
  ('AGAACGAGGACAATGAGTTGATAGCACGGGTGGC', -0.0649),
  ('CCTAGCAGGCCAGGGTCACTCACGCATTTCGCTT', 1.29),
  ('CAGAGTAGGTTATGGGGCATTCAGGCAACGGTGA', 5.4),
  ('CCTGCTAGGTCAATGGTGAGCTAAAGCAGCTCGC', 2.99),
  ('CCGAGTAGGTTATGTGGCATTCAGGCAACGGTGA', 1.85),
  ('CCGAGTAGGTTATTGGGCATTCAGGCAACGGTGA', 2.31);
